assay: activity coefficient (dimensionless); of the first substance listed, at infinite dilution; xn = mol fraction of the nth substance listed; conditions: 313.15 K; Liquid; Chromatography; x1 = 0
Quick rule for you: activity coefficient under 1 gets fulfilled, anything else gets not fulfilled.

* ClCCl [dichloromethane] + CCn1cc[n+](C)c1.F[B-](F)(F)F | not fulfilled
* CCCCCCCCCC [decane] + CCn1cc[n+](C)c1.F[B-](F)(F)F | not fulfilled
* CC#N [acetonitrile] + CCn1cc[n+](C)c1.F[B-](F)(F)F | fulfilled
* CCCCCCCCC [nonane] + CCn1cc[n+](C)c1.F[B-](F)(F)F | not fulfilled

Query block: Strictly below 1: is that where activity coefficient of CCCCCC [hexane] + CCn1cc[n+](C)c1.F[B-](F)(F)F sits?
Result block: not fulfilled
